- PROTOCOL_SUMMARY: in vitro
- CONDITION_CONTEXT: PAMPA
- Description: Permeability of the compound by PAMPA assay
TEST_READOUT: Papp (×10⁻⁶ cm/s)
Respond with the bare value in ×10⁻⁶ cm/s.

Name the reported Papp value associated with the compound "COc1ccc2c(c1)Sc1ccccc1N2NC(=O)CCN1CCN(C)CC1" 16.8

Here's the next entry for you.
Name the reported Papp value associated with the compound "O=C(CN1CCCC1)NN1c2ccccc2Sc2ccc(Cl)cc21" 11.2

====

- PROTOCOL_SUMMARY: in vitro
- CONDITION_CONTEXT: PAMPA
TEST_READOUT: Papp (×10⁻⁶ cm/s)
Respond with the bare value in ×10⁻⁶ cm/s.

Example entries begin here.
Name the reported Papp value associated with the compound "COc1ccc2c(c1)Sc1ccccc1N2NC(=O)CCN1CCCC1" 8.7

Entry to check: "CC(=O)NN1c2ccccc2Sc2cc(Cl)ccc21" 9.8

Entry to check: "O=C(CN1CCCCC1)NN1c2ccccc2Sc2ccccc21" 16.4

Entry to check: "CN(C)CC(=O)NN1c2ccccc2Sc2ccc(Cl)cc21" 13.5

Entry to check: "O=C(CN1CCCCC1)NN1c2ccccc2Sc2cccc(Cl)c21" 13.9

Next:
Name the reported Papp value associated with the compound "CN(C)CC(=O)NN1c2ccccc2Sc2cc(Cl)ccc21" 15.5

Entry to check: "O=C(CN1CCCC1)NN1c2ccccc2Sc2ccccc21" 10.5

Entry to check: "O=C(CCN1CCCC1)NN1c2ccccc2Sc2cc(Cl)ccc21" 16.4
